Source: patent US20240092897A1

Parameter kon: see the listing below.
# ASSAY_TARGET: T1, Human Siglec-15, His Tag (human Siglec-15 full-length extracellular domain linked with His tag) (human, UniProt Q6ZMC9 20-263)
# T1 construct: Bought from ACROBiosystems; also called Siglec-15 protein; SG5-H52H3
# T1 sequence: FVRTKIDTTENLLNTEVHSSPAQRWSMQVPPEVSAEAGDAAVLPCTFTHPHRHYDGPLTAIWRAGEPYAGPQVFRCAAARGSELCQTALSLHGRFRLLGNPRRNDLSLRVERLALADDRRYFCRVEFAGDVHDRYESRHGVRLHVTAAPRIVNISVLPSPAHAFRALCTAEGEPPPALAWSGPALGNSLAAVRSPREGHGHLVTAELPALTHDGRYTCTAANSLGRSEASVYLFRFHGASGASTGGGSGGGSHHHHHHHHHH
# MEASUREMENT_NOTES: SPR Biacore, antibody captured by anti-human Fc on CM5, Siglec-15 protein as analyte
Give the number; M⁻¹ s⁻¹ is assumed, so skip it.

21F6C6-hH2L2 (antibody, IgG1, V domains shown, Humanized; hIgG1, Kappa) VH: EVQLVESGGGLVKPGGSLRLSCAASGFTFSSYAMSWVRQAPGKGLEWVATISSGGSLIYYADSVTGRFTISRDNAKNTLYLQMNSLRAEDTAVYYCVRHGYYYGDSTLYYAMDYWGQGTTVTVSS VL: DIQLTQSPSSLSASVGDRATITCRASQSVDYDGDSYMNWYQQKPGKAPKLLIYAASNLESGVPSRFSGSGSGTDFTLTISSVQPEDFATYYCQQSNEAPLTFGQGTKLEIK
4.59e+06
174C11C9 chimeric antibody (antibody, human IgG1, V domains shown, also called 174C11C9-mHL) VH: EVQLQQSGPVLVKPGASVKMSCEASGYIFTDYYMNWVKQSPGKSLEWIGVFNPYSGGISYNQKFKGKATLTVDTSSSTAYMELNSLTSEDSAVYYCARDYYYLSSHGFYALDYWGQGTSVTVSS VL: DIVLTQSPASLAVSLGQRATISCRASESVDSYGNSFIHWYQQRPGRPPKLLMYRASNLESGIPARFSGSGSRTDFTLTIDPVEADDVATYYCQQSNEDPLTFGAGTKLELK
1.74e+06

Please look at the following binder next.
Form field: reported kon of 124B11F6-hH1L1 (antibody, IgG1, V domains shown, Humanized; hIgG1 heavy chain constant region, Lambda-C2 light chain constant region) VH: QVQLVQSGAEVKKPGASVKVSCKASVFNIKDYYMHWVRQAPGQGLEWIGRIDPEDDKTKYAPKFQGRATITADTSTNTAYLELSSLRSEDTAVYYCVRGWLGYIMDFWGQGTTVTVSS VL: QLVLTQSPSASFSLGASAKLTCTLSSQHSTYTIDWYQQQPEKGPRYVMELKEDGSHSTGDGIPDRFSGSSSGAERYLTISSIQSEDEADYICGVGATIKEQFVYVFGGGTKVTVL
1.17e+06
